# Assay Method Text: In vivo pharmacokinetics in rats (gavage and intravenous injection), plasma HPLC-DAD
# Parameters: species or system Wistar rats
# Test Parameters: male, Wistar, rat, in vivo, iv, 40 mg/kg
Outcome Measure: AUC(0-inf) (ng·h/mL)
Could you give me the number in ng·h/mL? Just the number is fine.

Per the records, this compound ( CCCCC1(O)C2=C(C=CCC2)C(=O)N1C1CC1 (racemic) [ligustilide derivative] ) has AUC(0-inf) equal to 12100

Just for reference, patent US11919857B2 is where these values come from.
